- System Under Test: Peroxisome proliferator-activated receptor alpha (Mus musculus) (UniProt P23204)
- Sequence (P23204 whole entry): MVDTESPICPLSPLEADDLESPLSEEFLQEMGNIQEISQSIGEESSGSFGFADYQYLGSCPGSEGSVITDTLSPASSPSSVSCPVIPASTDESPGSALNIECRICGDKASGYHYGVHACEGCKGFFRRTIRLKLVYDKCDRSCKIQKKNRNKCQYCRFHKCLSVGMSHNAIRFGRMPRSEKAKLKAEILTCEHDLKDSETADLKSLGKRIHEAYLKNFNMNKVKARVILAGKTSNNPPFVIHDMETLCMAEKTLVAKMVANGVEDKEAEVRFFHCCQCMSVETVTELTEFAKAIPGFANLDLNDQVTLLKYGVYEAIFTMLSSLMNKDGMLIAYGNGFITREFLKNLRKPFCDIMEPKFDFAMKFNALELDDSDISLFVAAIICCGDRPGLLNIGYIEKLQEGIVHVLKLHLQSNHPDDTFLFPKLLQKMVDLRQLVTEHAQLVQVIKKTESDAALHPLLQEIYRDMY
- Assay Procedure: Agonist activity at mouse PPARalpha assessed as maximum activation at 10 uM by in vitro functional transactivation assay relative to 1 uM GW0746
Observed Property: %max

O=C(O)Cc1cn(Cc2ccccc2)c2cc(OCCCn3c4ccccc4c4ccccc43)ccc12 < 10%

[Q] Provide %max, recorded with Peroxisome proliferator-activated receptor alpha (Mus musculus) (UniProt P23204), of O=C(O)Cc1cn(Cc2ccccc2)c2ccc(OCCCN3c4ccccc4Oc4ccccc43)cc12
[A] 12.8%

[Q] Would you please give the reported %max of O=C(O)Cc1c[nH]c2cc(OCCCN3c4ccccc4Oc4ccccc43)ccc12 with Peroxisome proliferator-activated receptor alpha (Mus musculus) (UniProt P23204)?
[A] < 10%

[Q] Please respond with reported %max (system Peroxisome proliferator-activated receptor alpha (Mus musculus) (UniProt P23204)) for O=C(O)Cc1c[nH]c2ccc(OCCCn3c4ccccc4c4ccccc43)cc12 .
[A] 10.1%

====

- System Under Test: Peroxisome proliferator-activated receptor delta (Mus musculus) (UniProt P35396)
- Sequence (P35396 whole entry): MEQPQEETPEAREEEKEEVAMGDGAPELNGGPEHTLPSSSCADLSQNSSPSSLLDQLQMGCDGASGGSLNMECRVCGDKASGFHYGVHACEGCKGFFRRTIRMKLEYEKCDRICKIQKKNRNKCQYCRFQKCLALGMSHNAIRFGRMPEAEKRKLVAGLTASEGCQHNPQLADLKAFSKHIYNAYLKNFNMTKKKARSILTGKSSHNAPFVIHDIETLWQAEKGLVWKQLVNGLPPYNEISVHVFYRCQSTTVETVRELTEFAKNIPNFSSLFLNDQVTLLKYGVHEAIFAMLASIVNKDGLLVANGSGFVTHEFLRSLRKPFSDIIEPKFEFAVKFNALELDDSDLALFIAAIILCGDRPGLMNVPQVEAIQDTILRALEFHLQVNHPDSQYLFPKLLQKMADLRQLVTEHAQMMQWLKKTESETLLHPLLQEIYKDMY
- Assay Procedure: Agonist activity at mouse PPARdelta assessed as maximum activation at 10 uM by in vitro functional transactivation assay relative to 0.1 uM GW0742
Observed Property: %max (%)
I only need the number, in %, no unit after it.

O=C(O)Cc1c[nH]c2ccc(OCCCn3c4ccccc4c4ccccc43)cc12 10.5

[Q] Name the recorded %max of the item O=C(O)Cc1c[nH]c2ccc(OCCCN3c4ccccc4Oc4ccccc43)cc12 in your answer.
[A] 16

[Q] Note down %max recorded for O=C(O)Cc1cn(Cc2ccccc2)c2cc(OCCCN3c4ccccc4Oc4ccccc43)ccc12
[A] 27.3

[Q] Entry O=C(O)Cc1cn(Cc2ccccc2)c2ccc(OCCCN3c4ccccc4Oc4ccccc43)cc12 needs its %max filled in; supply it.
[A] 21.7

[Q] Please report the measured %max for O=C(O)Cc1cn(Cc2ccccc2)c2ccc(OCCCn3c4ccccc4c4ccccc43)cc12
[A] 41.3

[Q] Provide one value: measured %max of O=C(O)Cc1cn(Cc2ccc(F)cc2)c2cc(OCCCN3c4ccccc4Oc4ccccc43)ccc12
[A] 36.6

====

- System Under Test: Peroxisome proliferator-activated receptor gamma (Mus musculus) (UniProt P37238)
- Sequence (whole entry): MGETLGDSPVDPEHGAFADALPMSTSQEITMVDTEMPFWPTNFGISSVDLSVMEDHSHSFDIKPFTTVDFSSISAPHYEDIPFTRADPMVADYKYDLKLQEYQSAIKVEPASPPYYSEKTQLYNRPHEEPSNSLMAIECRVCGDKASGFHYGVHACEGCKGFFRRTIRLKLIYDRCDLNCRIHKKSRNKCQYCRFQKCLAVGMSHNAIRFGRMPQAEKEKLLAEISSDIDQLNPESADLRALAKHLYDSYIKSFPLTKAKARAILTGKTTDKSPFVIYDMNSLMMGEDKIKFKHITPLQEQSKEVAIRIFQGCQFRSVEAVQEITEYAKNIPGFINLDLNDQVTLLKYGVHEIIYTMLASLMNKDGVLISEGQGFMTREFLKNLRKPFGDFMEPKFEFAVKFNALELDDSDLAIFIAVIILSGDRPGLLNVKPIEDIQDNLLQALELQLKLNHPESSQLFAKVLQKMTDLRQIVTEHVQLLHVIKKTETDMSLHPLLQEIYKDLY
- Assay Procedure: Agonist activity at mouse PPARgamma assessed as maximum activation at 10 uM by in vitro functional transactivation assay relative to 1 uM rosiglitazone
Observed Property: %max

O=C(O)Cc1cn(Cc2ccccc2)c2ccc(OCCCN3c4ccccc4Oc4ccccc43)cc12 43.1%
O=C(O)Cc1cn(Cc2ccccc2)c2cc(OCCCN3c4ccccc4Oc4ccccc43)ccc12 < 10%
O=C(O)Cc1cn(Cc2ccc(F)cc2)c2cc(OCCCN3c4ccccc4Oc4ccccc43)ccc12 23.8%
O=C(O)Cc1cn(Cc2ccccc2)c2ccc(OCCCn3c4ccccc4c4ccccc43)cc12 28.7%
O=C(O)Cc1cn(Cc2ccccc2)c2cc(OCCCn3c4ccccc4c4ccccc43)ccc12 < 10%
O=C(O)Cc1c[nH]c2cc(OCCCn3c4ccccc4c4ccccc43)ccc12 < 10%

[Q] Provide measured %max value, entry: O=C(O)Cc1c[nH]c2cc(OCCCN3c4ccccc4Oc4ccccc43)ccc12
[A] < 10%

[Q] Check the records and state %max for O=C(O)Cc1c[nH]c2ccc(OCCCN3c4ccccc4Oc4ccccc43)cc12
[A] 29.4%

[Q] Respond only with %max recorded for O=C(O)Cc1c[nH]c2ccc(OCCCn3c4ccccc4c4ccccc43)cc12
[A] < 10%
